Recorded values, source paper PMC5540273.

# Test system: CSNK1E
# CONDITION_CONTEXT: concentration: 1 μM, replicates: in singlicate; n = 1;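 further: KINOMEscan kinase panel screen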
I'd appreciate it if you marked entries 1 when %Inh is lower than 20% and -1 when it is not.

COc1cccc(C2=C(Nc3cccc(C(=O)O)c3)C(=O)NC2=O)c1 :: 1
O=C(Nc1n[nH]c2nc(-c3ccccc3)c(Br)cc12)C1CC1 :: 1
Cc1cc(Nc2nc(-c3cccc(C)n3)nc3ccccc23)ccn1 :: -1

Request: For COc1ccc(Nc2nccc(N3CCC(NS(=O)(=O)c4ccc(NC(C)=O)cc4)C3)n2)cc1 (stereo not drawn) , is the recorded %Inh below the cut-off of 20%?
Result: -1

Request: Does the reported %Inh of the following compound sit strictly below 20%? Cc1nnc(-c2ccc3ncn(-c4ccc(S(C)=O)cc4)c3c2)o1 (stereo not drawn)
Result: 1

Request: Lab log: compare recorded %Inh with 20%; is it strictly lower for `Nc1nc(-c2ccccc2F)c(-c2ccnc3ccccc23)s1` ?
Result: -1

Request: Strictly below 20%: is that where %Inh of `CCc1ccc(-c2ccc3c(c2)-c2nn(C)cc2S(=O)(=O)N3C)cc1` sits?
Result: 1

Request: Just wondering, is %Inh of `Nc1n[nH]c2ncc(-c3ccccc3)cc12` below 20%?
Result: 1

Request: Just wondering, is %Inh of `Cl.NS(=O)(=O)c1cccc(Nc2cc(-c3ccc(F)cc3)n[nH]2)c1` below 20%?
Result: 1

----------
# Tested on: NEK2
# CONDITION_CONTEXT: concentration: 1 μM, replicates: in singlicate; n = 1
# reported %Inh; entries follow
Enter your answer as a number in %; do not include the unit.

Sample records with %Inh:
O=C1NC(=O)C(c2ccccc2)=C1Nc1cccc(O)c1 :: 16
COc1cc(Nc2ccnc3ccc(C(F)(F)F)cc23)cc(OC)c1OC :: 0
COc1ccc(CNC(=O)NC2CCN(c3ccnc(Nc4ccc(F)cc4)n3)C2)cc1 (stereo not shown) :: 16
COc1cc2ncn(-c3cc(OCCCc4ccccc4)c(C(N)=O)s3)c2cc1OC :: 36
CCCNC(=O)Nc1ccc(Oc2ncnc3ccn(C)c23)cc1 :: 0

Request: Look up %Inh with NEK2 for this molecule: `FC(F)(F)c1ccc(-c2ncn(CCCN3CCOCC3)c2-c2ccncc2)cc1`
Result: 0

Request: %Inh of `CCC(=O)c1c(-c2ccccc2)c2cc(Cl)ccc2c(=O)n1Cc1cc(C(=O)NC2CC2)n(C)n1` on NEK2?
Result: 0

Request: Could you share what %Inh was measured for `COC(=O)c1c(-c2ccccc2)c2cc(C)ccc2c(=O)n1Cc1ccccc1` , tested on NEK2?
Result: 0

Request: For the record `Nc1ncnc2c1ncn2-c1cccc2ccccc12` , what value of %Inh is listed for NEK2?
Result: 0

Request: Notebook entry, NEK2 assay: %Inh of `CCCC(=O)Nc1n[nH]c2ncc(-c3cccc4ccccc34)cc12` = ?
Result: 0

Request: Tell me reported %Inh for `Cc1cccc(-c2nc(Nc3ccc4c(cnn4C)c3)c3ccccc3n2)n1` , tested with NEK2.
Result: 14

Request: Any idea what %Inh came out for `Cc1nn2c(=O)cc(N3CCOCC3)nc2n1Cc1cccc(Cl)c1Cl` on NEK2?
Result: 2

Request: Given the entry COc1cc(Nc2nccc(N3CCC(NC(=O)C(C)c4ccc(Cl)cc4)C3)n2)cc(OC)c1OC (stereo not shown) , what %Inh was observed with NEK2?
Result: 0

----------
# key: entry, value: %Inh
# Test system: CDKL3
# CONDITION_CONTEXT: concentration: 1 μM, replicates: in singlicate; n = 1
Give the number; % is assumed, so skip it.

# count of solved cases: 4
Nc1nc(N)c2nc(-c3ccccc3)[nH]c2n1 :: 2
COc1ccc(-c2coc3ccc(-c4nnc(SCc5cccc(C#N)c5)o4)cc23)cc1 :: 0
COc1cc(Nc2nccc(N3CCC(NC(=O)C(C)c4ccc(Cl)cc4)C3)n2)cc(OC)c1OC (centres unmarked) :: 0
OCCCNc1nccc(-c2c(-c3cccc(C(F)(F)F)c3)nn3cc(C(F)(F)F)ccc23)n1 :: 0

Request: Please give the measured %Inh for this molecule: `O=C(Nc1n[nH]c2nc(-c3ccccc3)c(Br)cc12)C1CC1`
Result: 0

----------
# Tested on: ERK3
# Construct: gene MAPK6
# CONDITION_CONTEXT: concentration: 1 μM, replicates: in singlicate; n = 1
REPORTED_METRIC: %Inh
Give the value; after it, write the unit.

Worked cases, %Inh given:
CCn1c(-c2nonc2N)nc2ccccc21 :: 0%
O=C(Nc1n[nH]c2nc(-c3ccccc3)c(Br)cc12)C1CC1 :: 2%
CCc1ccc(-c2ccc3c(c2)-c2nn(C)cc2S(=O)(=O)N3C)cc1 :: 0%

Request: # value lookup — system ERK3, readout %Inh, item `Cc1ccc(Oc2ccc(Nc3ncnc4cc[nH]c34)cc2C)cn1`
Result: 0%

Request: Query for ERK3: what %Inh does the record show for `OCCCNc1nccc(-c2c(-c3cccc(C(F)(F)F)c3)nn3cc(C(F)(F)F)ccc23)n1` ?
Result: 0%

Request: Value wanted: %Inh (ERK3) of entry `COc1cccc(C2=C(Nc3cccc(C(=O)O)c3)C(=O)NC2=O)c1`
Result: 2%

Request: // fetch ERK3 %Inh for Cc1nnc(-c2ccc3ncn(-c4ccc(S(C)=O)cc4)c3c2)o1 (stereo not shown)
Result: 0%

----------
# Test system: MAP3K4
# CONDITION_CONTEXT: concentration: 1 μM, replicates: in singlicate; n = 1
# reported %Inh; entries follow
The reply should be a number in %, with the unit left off.

Request: Quick one: %Inh of CN1C(=O)C(Nc2cc(Cl)c(O)c(Cl)c2)=C(c2ccc(Cl)cc2)C1=O [SB-404321] ?
Result: 0

Request: Any idea what %Inh was measured for Cc1c(Cn2c(C)nn3c(=O)cc(N4CCO[C@H](C)C4)nc23)cccc1C(F)(F)F [GSK2373690] ?
Result: 43

Request: Could you share which %Inh value was measured for `COc1cc(OC)cc(-c2cc3cnc(N)nc3nc2NC(=O)NC(C)(C)C)c1` ?
Result: 32

Request: What does the data say about its %Inh? Entry: `COc1ccc(-c2cc3c(C)nc(N)nc3n([C@H]3CC[C@H](OCCO)CC3)c2=O)cn1`
Result: 4

Request: Param item = Cc1cccc(-c2cc(-c3c[nH]nc3-c3ccccn3)ccn2)c1 [GW679395] ; retrieve measured %Inh.
Result: 13

----------
Overview of reported %Inh across a group of compounds:
# Test system: ULK2
# CONDITION_CONTEXT: concentration: 1 μM, replicates: in singlicate; n = 1
Unit % implied. Number only.

Some solved cases for reference:
Cc1cc(Nc2nc(-c3cccc(C)n3)nc3ccccc23)ccn1 :: 0
Nc1nccc2scc(-c3ccc4c(c3)CCN4C(=O)Cc3ccccc3)c12 :: 0
FC(F)(F)c1ccc(-c2ncn(CCCN3CCOCC3)c2-c2ccncc2)cc1 :: 46
CCC(=O)c1c(-c2ccccc2)c2cc(Cl)ccc2c(=O)n1Cc1cc(C(=O)NC2CC2)n(C)n1 :: 6
COc1ccc(-c2cc3c(C)nc(N)nc3n([C@H]3CC[C@H](OCCO)CC3)c2=O)cn1 :: 0
O=C(Nc1n[nH]c2nc(-c3ccccc3)c(Br)cc12)C1CC1 :: 0
Nc1n[nH]c2ncc(-c3ccccc3)cc12 :: 0
COc1cccc(C2=C(N(C)c3ccccc3)C(=O)NC2=O)c1 :: 0
COC(=O)c1c(-c2ccccc2)c2cc(Br)ccc2c(=O)n1Cc1ccc(NC(=O)CCC(=O)O)cc1 :: 11
Nc1ncnc2c1ncn2-c1ccc(Cl)cc1 :: 0

Request: Request body: readout %Inh, system ULK2, query `CCc1ccc(-c2ccc3c(c2)-c2nn(C)cc2S(=O)(=O)N3C)cc1` . Return the value.
Result: 0

Request: Reported %Inh for ULK2, given `COc1cccc(-n2cnc3c(N)ncnc32)c1` ?
Result: 39

Request: # value lookup — system ULK2, readout %Inh, item `CCC(=O)c1c(-c2ccccc2)c2cc(Cl)ccc2c(=O)n1Cc1cc(S(C)(=O)=O)n(CCC(C)(C)O)n1`
Result: 7

Request: Please provide the recorded %Inh for COc1cc(Nc2nccc(N3CCC(NC(=O)C(C)c4ccc(Cl)cc4)C3)n2)cc(OC)c1OC (centres unmarked) , tested on ULK2.
Result: 0

----------
# System: CAMK2A
# CONDITION_CONTEXT: concentration: 1 μM, replicates: in singlicate; n = 1
Listed here are molecules together with their documented %Inh.
Only the number, expressed in %, is required.

CCC(=O)c1c(-c2ccccc2)c2cc(Cl)ccc2c(=O)n1Cc1cc(S(C)(=O)=O)n(CCC(C)(C)O)n1 :: 15
CCC(=O)c1c(-c2ccccc2)c2cc(Cl)ccc2c(=O)n1Cc1ccc(C(=O)O)cc1 :: 0
COc1cc2ncn(-c3cc(OCc4ccncc4Br)c(C(N)=O)s3)c2cc1OC [GW854278] :: 37

Request: Consider the molecule shown here: `COc1ccc(-c2cc3c(C)nc(N)nc3n([C@H]3CC[C@H](OCCO)CC3)c2=O)cn1` What is its recorded %Inh?
Result: 0
